Below, each entry is listed alongside its reported DMPK oligo conjugate binding to cyno TfR1.
- target or system: T1, cynomolgus monkey transferrin receptor 1 (cTfR1) (cynomolgus monkey (Macaca fascicularis), UniProt Q5RDH6 89-760 (Pongo abelii entry), limits assumed)
- T1 construct: Recombinant cynomolgus TfR1; also called cyTfR1; cyno TfR1
- T1 chain: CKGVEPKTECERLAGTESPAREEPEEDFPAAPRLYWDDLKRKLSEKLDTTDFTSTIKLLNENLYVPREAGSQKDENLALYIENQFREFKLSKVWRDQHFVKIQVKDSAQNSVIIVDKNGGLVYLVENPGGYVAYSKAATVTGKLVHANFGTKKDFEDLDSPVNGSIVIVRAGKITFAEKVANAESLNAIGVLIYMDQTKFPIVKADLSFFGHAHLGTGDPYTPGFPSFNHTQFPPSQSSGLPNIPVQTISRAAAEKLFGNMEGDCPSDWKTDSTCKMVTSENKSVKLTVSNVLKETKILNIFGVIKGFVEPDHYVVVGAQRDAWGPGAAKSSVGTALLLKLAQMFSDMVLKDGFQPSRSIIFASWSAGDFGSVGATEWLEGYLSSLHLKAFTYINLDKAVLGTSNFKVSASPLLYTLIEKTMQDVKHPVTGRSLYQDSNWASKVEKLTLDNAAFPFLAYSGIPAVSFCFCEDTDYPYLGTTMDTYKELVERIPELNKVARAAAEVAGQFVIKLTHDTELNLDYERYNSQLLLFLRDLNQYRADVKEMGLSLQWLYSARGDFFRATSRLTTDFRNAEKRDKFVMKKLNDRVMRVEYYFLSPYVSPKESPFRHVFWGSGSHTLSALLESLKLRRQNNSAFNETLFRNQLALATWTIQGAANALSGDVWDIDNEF
- assay name: ELISA, cyno TfR1, Fab-ASO300 conjugate
Report the figure in nM without appending any unit label.

Some solved entries appear below for comparison.
What the record says about humanized anti-TfR Fab 3A4 VH3 (N54T)/Vk4 conjugated to DMPK-targeting oligonucleotide ASO300 (Fab, V domains shown, Fab conjugated to oligonucleotide ASO300; chain and residue not stated, Fab-oligonucleotide conjugate; The protein chains are those of the unconjugated Fab) VH: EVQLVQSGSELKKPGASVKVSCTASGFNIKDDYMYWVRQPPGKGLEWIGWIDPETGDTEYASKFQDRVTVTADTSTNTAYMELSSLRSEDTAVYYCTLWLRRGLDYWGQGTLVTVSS VL: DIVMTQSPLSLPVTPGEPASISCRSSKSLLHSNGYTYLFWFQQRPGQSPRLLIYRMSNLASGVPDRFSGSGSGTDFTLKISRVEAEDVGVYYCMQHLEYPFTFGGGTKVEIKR : DMPK oligo conjugate binding to cyno TfR1 is 5.12

Sample humanized anti-TfR Fab 3A4 VH3 (N54S)/Vk4 conjugated to DMPK-targeting oligonucleotide ASO300 (Fab, V domains shown, Fab conjugated to oligonucleotide ASO300; chain and residue not stated, Fab-oligonucleotide conjugate; The protein chains are those of the unconjugated Fab) VH: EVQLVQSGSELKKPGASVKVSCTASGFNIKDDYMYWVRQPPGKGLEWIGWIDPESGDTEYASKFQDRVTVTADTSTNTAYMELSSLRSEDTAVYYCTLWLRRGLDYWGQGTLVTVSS VL: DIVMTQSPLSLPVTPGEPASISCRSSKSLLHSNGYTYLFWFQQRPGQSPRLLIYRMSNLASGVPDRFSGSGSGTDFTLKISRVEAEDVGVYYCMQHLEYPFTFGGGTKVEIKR ; DMPK oligo conjugate binding to cyno TfR1 observed: 4.1

Reported DMPK oligo conjugate binding to cyno TfR1 for humanized anti-TfR Fab 3A4 VH3/Vk4 conjugated to DMPK-targeting oligonucleotide ASO300 (Fab, V domains shown, Fab conjugated to oligonucleotide ASO300; chain and residue not stated, Fab-oligonucleotide conjugate; The protein chains are those of the unconjugated Fab) VH: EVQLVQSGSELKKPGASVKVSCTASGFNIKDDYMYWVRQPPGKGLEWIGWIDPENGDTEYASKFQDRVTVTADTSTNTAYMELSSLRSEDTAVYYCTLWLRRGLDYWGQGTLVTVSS VL: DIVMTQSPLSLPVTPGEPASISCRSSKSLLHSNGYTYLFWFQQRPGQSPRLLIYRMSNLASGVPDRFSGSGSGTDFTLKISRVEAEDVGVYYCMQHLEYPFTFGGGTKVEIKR was 7.59

Documented DMPK oligo conjugate binding to cyno TfR1 of humanized anti-TfR Fab 3M12 VH3/Vk2 conjugated to DMPK-targeting oligonucleotide ASO300 (Fab, V domains shown, Fab conjugated to oligonucleotide ASO300; chain and residue not stated, Fab-oligonucleotide conjugate; The protein chains are those of the unconjugated Fab) VH: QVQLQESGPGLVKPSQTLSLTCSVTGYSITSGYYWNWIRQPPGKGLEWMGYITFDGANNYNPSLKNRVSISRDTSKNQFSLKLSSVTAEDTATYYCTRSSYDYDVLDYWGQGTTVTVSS VL: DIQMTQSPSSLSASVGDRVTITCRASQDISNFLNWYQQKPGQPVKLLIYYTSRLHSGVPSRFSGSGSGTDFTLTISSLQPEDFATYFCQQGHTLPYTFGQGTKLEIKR : 2.26

Consider humanized anti-TfR Fab 5H12 VH5 (C33Y)/Vk4 conjugated to DMPK-targeting oligonucleotide ASO300 (Fab, V domains shown, Fab conjugated to oligonucleotide ASO300; chain and residue not stated, Fab-oligonucleotide conjugate; also called 5H12 (VH4-C33Y/Vk4) conjugate) VH: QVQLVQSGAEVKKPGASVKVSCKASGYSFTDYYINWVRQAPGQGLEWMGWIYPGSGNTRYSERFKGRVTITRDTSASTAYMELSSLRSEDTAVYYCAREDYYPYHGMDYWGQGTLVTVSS VL: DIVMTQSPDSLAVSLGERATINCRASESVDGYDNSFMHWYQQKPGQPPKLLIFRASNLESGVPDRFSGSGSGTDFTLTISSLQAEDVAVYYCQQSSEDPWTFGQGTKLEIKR . Its measured DMPK oligo conjugate binding to cyno TfR1 is 13.9

The binder humanized anti-TfR Fab 5H12 VH5 (C33D)/Vk4 conjugated to DMPK-targeting oligonucleotide ASO300 (Fab, V domains shown, Fab conjugated to oligonucleotide ASO300; chain and residue not stated, Fab-oligonucleotide conjugate; The protein chains are those of the unconjugated Fab) VH: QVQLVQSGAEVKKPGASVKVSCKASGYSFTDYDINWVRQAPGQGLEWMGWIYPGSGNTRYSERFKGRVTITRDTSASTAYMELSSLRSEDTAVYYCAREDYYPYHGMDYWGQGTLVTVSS VL: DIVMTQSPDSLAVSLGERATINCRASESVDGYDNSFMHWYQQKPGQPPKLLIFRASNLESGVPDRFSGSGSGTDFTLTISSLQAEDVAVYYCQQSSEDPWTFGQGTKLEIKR showed DMPK oligo conjugate binding to cyno TfR1 equal to 10.2

Turning to the following binder.
For reference, reported DMPK oligo conjugate binding to cyno TfR1 for humanized anti-TfR Fab 3M12 VH4/Vk3 conjugated to DMPK-targeting oligonucleotide ASO300 (Fab, V domains shown, Fab conjugated to oligonucleotide ASO300; chain and residue not stated, Fab-oligonucleotide conjugate; The protein chains are those of the unconjugated Fab) VH: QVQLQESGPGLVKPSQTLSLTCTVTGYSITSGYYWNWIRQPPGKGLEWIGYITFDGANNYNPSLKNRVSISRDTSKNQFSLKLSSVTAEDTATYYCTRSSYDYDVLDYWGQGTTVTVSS VL: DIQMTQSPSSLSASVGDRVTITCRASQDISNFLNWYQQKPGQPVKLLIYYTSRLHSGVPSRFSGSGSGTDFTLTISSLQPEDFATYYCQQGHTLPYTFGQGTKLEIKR stands at 1.85
